Assay: Cmax in male BALB/c mouse at 10 mg/kg, po single administration measured upto 72 hrs by LC-MS/MS analysis
Type: ADME, organism-based
Conditions: in vivo
Parameter threshold = 7000 ng/mL. Response is Condition met when Cmax meets or exceeds it, else Condition not met.

Answered examples (4):
* C[C@H](NC(=O)c1csc(-c2ccc(S(C)(=O)=O)cc2)n1)c1cn(-c2cc(C(F)(F)F)ccn2)nn1 | Condition not met
* C[C@@H](NC(=O)c1csc(-c2ccc(S(C)(=O)=O)cc2)n1)c1cn(-c2cc(C(F)(F)F)ccn2)nn1 | Condition not met
* CS(=O)(=O)c1ccc(-c2nc(C(=O)NCc3cn(-c4cc(C(F)(F)F)ccn4)nn3)cs2)cc1 | Condition not met
* CS(=O)(=O)c1ccc(-c2ncc(C(=O)NCc3cn(-c4cc(C(F)(F)F)ccn4)nn3)s2)cc1 | Condition not met

Query block: Is Cmax for C[C@H](NC(=O)c1cnc(-c2ccc(S(C)(=O)=O)cc2)s1)c1cn(-c2cc(C(F)(F)F)ccn2)nn1 at or above 7000 ng/mL?
Result block: Condition met

Query block: Now this one: CS(=O)(=O)c1ccc(-c2nc(C(=O)NCc3cn(-c4cc(Br)ccn4)nn3)cs2)cc1
Result block: Condition not met

====

Target: UniProt Q9Z1M0
Sequence (Q9Z1M0 whole entry): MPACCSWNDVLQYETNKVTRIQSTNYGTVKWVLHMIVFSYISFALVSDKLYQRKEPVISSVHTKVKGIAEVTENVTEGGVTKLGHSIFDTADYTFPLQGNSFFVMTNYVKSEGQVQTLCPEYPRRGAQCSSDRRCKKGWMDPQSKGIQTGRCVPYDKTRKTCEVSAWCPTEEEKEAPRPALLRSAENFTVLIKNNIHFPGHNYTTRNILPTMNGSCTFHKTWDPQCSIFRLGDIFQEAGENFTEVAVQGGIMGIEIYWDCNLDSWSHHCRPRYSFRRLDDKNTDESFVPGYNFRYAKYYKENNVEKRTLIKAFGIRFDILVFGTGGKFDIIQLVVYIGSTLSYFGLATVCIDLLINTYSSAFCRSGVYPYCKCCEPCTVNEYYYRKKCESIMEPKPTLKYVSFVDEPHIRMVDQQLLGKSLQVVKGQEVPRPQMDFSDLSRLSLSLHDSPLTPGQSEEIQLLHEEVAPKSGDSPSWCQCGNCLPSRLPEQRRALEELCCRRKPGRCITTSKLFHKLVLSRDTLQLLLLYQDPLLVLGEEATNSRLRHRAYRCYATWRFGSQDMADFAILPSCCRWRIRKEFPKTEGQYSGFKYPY
Assay: Antagonist activity against mouse P2X7 receptor expressed in ATP-stimulated HEK293 cells assessed as influx of PI at 200 nM by fluorescence dye uptake assay relative to control
Assay type: cell-based
Set-up: scale not given: the % may be the effect or the level left
Activity calls are given as the source filed them. The rule behind the calls is not given here.
Test Readout: Activity

Solved cases (5 shown):
• CS(=O)(=O)c1ccc(-c2nc(C(=O)NCc3cn(-c4cc(-c5ccc(C(F)(F)F)cc5)ccn4)nn3)cs2)cc1 = 27.1%
• CS(=O)(=O)c1ccc(-c2ncc(C(=O)NCc3cn(-c4cc(-c5cccc(C(F)(F)F)c5)ccn4)nn3)s2)cc1 = 13.3%
• CS(=O)(=O)c1ccc(-c2nc(C(=O)NCc3cn(-c4cc(Nc5cnn(C(F)F)c5)ccn4)nn3)cs2)cc1 = 28.7%
• CS(=O)(=O)c1ccc(-c2nc(C(=O)NCc3cn(-c4ccc(Br)nc4)nn3)cs2)cc1 = inactive
• CS(=O)(=O)c1ccc(-c2nc(C(=O)NCc3cn(-c4cccc(Br)n4)nn3)cs2)cc1 = 15.6%

Batch lookup, Activity per entry.
1. CS(=O)(=O)c1ccc(-c2ncc(C(=O)NCc3cn(-c4cncc(Br)c4)nn3)s2)cc1
2. Cc1ccnc(-n2cc(CNC(=O)c3cnc(-c4ccc(S(C)(=O)=O)cc4)s3)nn2)c1
3. Cc1ccnc(-n2cc(CNC(=O)c3csc(-c4ccc(S(C)(=O)=O)cc4)n3)nn2)c1
4. CS(=O)(=O)c1ccc(-c2ncc(C(=O)NCc3cn(-c4ccc(F)cn4)nn3)s2)cc1

Result block:
["33.5%", "30.7%", "inactive", "12.4%"]

Batch lookup, Activity per entry.
1. COc1ccnc(-n2cc(CNC(=O)c3cnc(-c4ccc(S(C)(=O)=O)cc4)s3)nn2)c1
2. CS(=O)(=O)c1ccc(-c2nc(C(=O)NCc3cn(-c4cc(-c5cncc(C(F)(F)F)c5)ccn4)nn3)cs2)cc1
3. CS(=O)(=O)c1ccc(-c2nc(C(=O)NCc3cn(-c4cncc(Br)c4)nn3)cs2)cc1

Result block:
["inactive", "30.3%", "17.7%"]

Batch lookup, Activity per entry.
1. CS(=O)(=O)c1ccc(-c2ncc(C(=O)NCc3cn(-c4ccnc(Br)c4)nn3)s2)cc1
2. CS(=O)(=O)c1ccc(-c2ncc(C(=O)NCc3cn(-c4cccc(Br)n4)nn3)s2)cc1
3. CS(=O)(=O)c1ccc(-c2ncc(C(=O)NCc3cn(-c4cc(Nc5cnn(C(F)F)c5)ccn4)nn3)s2)cc1
4. CS(=O)(=O)c1ccc(-c2ncc(C(=O)NCc3cn(-c4cc(-c5cncc(C(F)(F)F)c5)ccn4)nn3)s2)cc1

Result block:
1: inactive; 2: 10.7%; 3: 26.6%; 4: 42.8%

Batch lookup, Activity per entry.
1. CS(=O)(=O)c1ccc(-c2nc(C(=O)NCc3cn(-c4ccnc(Br)c4)nn3)cs2)cc1
2. CS(=O)(=O)c1ccc(-c2nc(C(=O)NCc3cn(-c4ccncc4Br)nn3)cs2)cc1
3. CS(=O)(=O)c1ccc(-c2ncc(C(=O)NCc3cn(-c4cc(-c5ccc(C(F)(F)F)cc5)ccn4)nn3)s2)cc1
4. Clc1cccc(-n2nnnc2NCc2ccccc2Oc2ccccn2)c1Cl

Result block:
1: inactive; 2: 28.6%; 3: inactive; 4: 90.7%

Batch lookup, Activity per entry.
1. CS(=O)(=O)c1ccc(-c2ncc(C(=O)NCc3cn(-c4cc(-c5ccc(C(F)(F)F)s5)ccn4)nn3)s2)cc1
2. CS(=O)(=O)c1ccc(-c2nc(C(=O)NCc3cn(-c4ccc(Cl)cn4)nn3)cs2)cc1
3. COc1ccnc(-n2cc(CNC(=O)c3csc(-c4ccc(S(C)(=O)=O)cc4)n3)nn2)c1
4. CS(=O)(=O)c1ccc(-c2ncc(C(=O)NCc3cn(-c4ccc(Cl)cn4)nn3)s2)cc1

Result block:
1: 18.4%; 2: inactive; 3: 6%; 4: inactive

Batch lookup, Activity per entry.
1. CS(=O)(=O)c1ccc(-c2ncc(C(=O)NCc3cn(-c4ccncc4Br)nn3)s2)cc1
2. CS(=O)(=O)c1ccc(-c2nc(C(=O)NCc3cn(-c4cc(-c5ccc(C(F)(F)F)s5)ccn4)nn3)cs2)cc1
3. CS(=O)(=O)c1ccc(-c2nc(C(=O)NCc3cn(-c4ccc(F)cn4)nn3)cs2)cc1
4. CS(=O)(=O)c1ccc(-c2ncc(C(=O)NCc3cn(-c4ccc(Br)nc4)nn3)s2)cc1

Result block:
["25.9%", "24.9%", "13.3%", "35%"]

====

Test: Plasma protein binding in plasma (unknown origin) at 10 uM measured after 6 hrs incubation by LC-MS/MS analysis
Assay type: ADME, cell-free
Conditions: read-out: PPB (converted)
Test Readout: fraction unbound at 6 h, 10 µM
Numbers only.

- C[C@@H](NC(=O)c1cnc(-c2ccc(S(C)(=O)=O)cc2)s1)c1cn(-c2cc(C(F)(F)F)ccn2)nn1: 0.0213

Query block: # get_value(readout='fraction unbound at 6 h, 10 µM', item= C[C@H](NC(=O)c1cnc(-c2ccc(S(C)(=O)=O)cc2)s1)c1cn(-c2cc(C(F)(F)F)ccn2)nn1 )
Result block: 0.003

====

Test: Metabolic stability in mouse liver microsomes assessed as clearance
Assay type: ADME, Microsome
Details: read-out: CLH
Test Readout: CLint scaled (mL/min/kg)
One number for each entry, in mL/min/kg.

- CS(=O)(=O)c1ccc(-c2nc(C(=O)NCc3cn(-c4cc(N5CCC(F)(F)CC5)ccn4)nn3)cs2)cc1: 273

Could you now look at the following molecule, please?
Query block: # get_value(readout='CLint scaled', item= CS(=O)(=O)c1ccc(-c2ncc(C(=O)NCc3cn(-c4cc(C(F)(F)F)ccn4)nn3)s2)cc1 )
Result block: 22.8

====

For each record, write down the corresponding remaining at 2 h, 1 µM.
Molecular target: UniProt:P08684
Sequence (P08684 whole entry): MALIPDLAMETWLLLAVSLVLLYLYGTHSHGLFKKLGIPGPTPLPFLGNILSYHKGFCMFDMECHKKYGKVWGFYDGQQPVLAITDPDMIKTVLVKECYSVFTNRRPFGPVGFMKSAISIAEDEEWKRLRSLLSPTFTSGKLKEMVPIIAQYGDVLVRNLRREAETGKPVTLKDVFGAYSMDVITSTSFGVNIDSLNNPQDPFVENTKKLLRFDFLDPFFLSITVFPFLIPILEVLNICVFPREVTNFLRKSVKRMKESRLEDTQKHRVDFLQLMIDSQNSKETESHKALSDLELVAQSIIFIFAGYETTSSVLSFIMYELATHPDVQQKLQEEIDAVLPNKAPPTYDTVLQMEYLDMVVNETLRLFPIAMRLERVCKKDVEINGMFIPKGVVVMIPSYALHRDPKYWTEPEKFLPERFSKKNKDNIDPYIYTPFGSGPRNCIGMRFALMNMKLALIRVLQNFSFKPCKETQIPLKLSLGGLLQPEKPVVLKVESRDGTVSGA
Assay: Inhibition of CYP3A4 in human liver microsomes assessed as compound remaining at 1 uM measured after 2 hrs incubation by LC-MS/MS analysis
Type: ADME, Microsome
Conditions: read-out: Activity
One number for each entry, in %.

Batch lookup, remaining at 2 h, 1 µM per entry.
1. C[C@@H](NC(=O)c1cnc(-c2ccc(S(C)(=O)=O)cc2)s1)c1cn(-c2cc(C(F)(F)F)ccn2)nn1
2. C[C@H](NC(=O)c1cnc(-c2ccc(S(C)(=O)=O)cc2)s1)c1cn(-c2cc(C(F)(F)F)ccn2)nn1

Result block:
1: 84.2; 2: 100

====

Assay: Tmax in male BALB/c mouse at 10 mg/kg, po single administration measured upto 72 hrs by LC-MS/MS analysis
Assay type: ADME, organism-based
Settings: in vivo
Test Readout: Tmax (h)
Give bare numbers, in h.

Solved cases (2 shown):
• C[C@H](NC(=O)c1csc(-c2ccc(S(C)(=O)=O)cc2)n1)c1cn(-c2cc(C(F)(F)F)ccn2)nn1 = 7.33
• CS(=O)(=O)c1ccc(-c2nc(C(=O)NCc3cn(-c4cc(C(F)(F)F)ccn4)nn3)cs2)cc1 = 1.83

Query block: # get_value(readout='Tmax', item= C[C@@H](NC(=O)c1csc(-c2ccc(S(C)(=O)=O)cc2)n1)c1cn(-c2cc(C(F)(F)F)ccn2)nn1 )
Result block: 3

====

Target: CYP2A6 (Homo sapiens)
Sequence (P11509 whole entry): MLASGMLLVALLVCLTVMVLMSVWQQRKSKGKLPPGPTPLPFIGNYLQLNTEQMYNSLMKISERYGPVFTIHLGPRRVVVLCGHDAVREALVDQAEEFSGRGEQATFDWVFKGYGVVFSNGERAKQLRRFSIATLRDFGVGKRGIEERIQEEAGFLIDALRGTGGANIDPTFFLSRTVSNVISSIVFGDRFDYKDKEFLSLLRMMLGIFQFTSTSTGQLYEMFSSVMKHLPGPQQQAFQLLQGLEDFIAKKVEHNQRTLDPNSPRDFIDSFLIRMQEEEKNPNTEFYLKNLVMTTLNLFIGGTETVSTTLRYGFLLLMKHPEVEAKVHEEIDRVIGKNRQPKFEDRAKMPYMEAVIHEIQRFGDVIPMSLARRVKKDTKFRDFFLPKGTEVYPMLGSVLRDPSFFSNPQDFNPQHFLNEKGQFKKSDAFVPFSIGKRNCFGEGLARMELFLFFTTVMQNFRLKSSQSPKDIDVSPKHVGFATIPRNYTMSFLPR
Test: Inhibition of CYP2A6 in human liver microsomes assessed as compound remaining at 1 uM measured after 2 hrs incubation by LC-MS/MS analysis
Type: ADME, Microsome
Conditions: read-out: Activity
Test Readout: remaining at 2 h, 1 µM (%)
Answers are plain numbers, in %.

• C[C@@H](NC(=O)c1cnc(-c2ccc(S(C)(=O)=O)cc2)s1)c1cn(-c2cc(C(F)(F)F)ccn2)nn1 = 84.2

Query block: # get_value(readout='remaining at 2 h, 1 µM', item= C[C@H](NC(=O)c1cnc(-c2ccc(S(C)(=O)=O)cc2)s1)c1cn(-c2cc(C(F)(F)F)ccn2)nn1 )
Result block: 100
